The origin of these recorded values is patent US20050244938A1.

System: Mycobacterium tuberculosis (H37Rv)
experiment.description: microplate Alamar Blue assay, in vitro activity against Mycobacterium tuberculosis
Format: cell-based
Label key: 1 (yes) means Mycobacterium tuberculosis (H37Rv) MIC under 3 µg/mL; 0 (no) means Mycobacterium tuberculosis (H37Rv) MIC of 3 µg/mL or more.

Task item: Lab note: Mycobacterium tuberculosis (H37Rv) MIC threshold 3 µg/mL. Does this compound come in strictly under it? O[C@]12C=C(c3nccc4c3[nH]c3ccccc34)C3CCN(CCCC/C=C\CC1)C[C@@]31C[C@]34CC[C@H](CCCN3[C@H]12)O4 (stereo partly drawn)
Reply: 1 (yes)

Task item: Given the entry `O=C1CCCN2[C@@H](CC1)C[C@]13CN4CCCC/C=C\CC[C@](O)(C=C(c5nccc6c5[nH]c5ccccc56)[C@@H]1CC4)[C@H]23` , would its reported Mycobacterium tuberculosis (H37Rv) MIC be below 3 µg/mL?
Reply: 0 (no)

Task item: Determine if O=CC1=C[C@@]2(O)CC/C=C\CCCCN3CC[C@@H]1[C@]1(CC4/C=C\CCCCN4[C@H]12)C3 (stereo partly drawn) shows Mycobacterium tuberculosis (H37Rv) MIC strictly lower than 3 µg/mL.
Reply: 0 (no)

Task item: Hello, is Mycobacterium tuberculosis (H37Rv) MIC of the following compound strictly smaller than 3 µg/mL? O=C1CCCN2[C@@H](CC1)C[C@]13CN4CCCC/C=C\CC[C@](O)(C=C(c5nccc6c5[nH]c5c(O)cccc56)C1CC4)[C@H]23 (stereo partly drawn)
Reply: 1 (yes)

Task item: Quick check: does `O[C@]12C=C(c3nccc4c3[nH]c3ccccc34)[C@@H]3CCN(CCCC/C=C\CC1)C[C@@]31C[C@@H]3/C=C\CCCCN3[C@H]12` have Mycobacterium tuberculosis (H37Rv) MIC under 3 µg/mL?
Reply: 1 (yes)

Task item: Given the entry O=C1CCCN2[C@H]3[C@]45CN6CCCC/C=C\CC[C@]3(C=C(c3nccc7c3[nH]c3c(O)cccc37)[C@H]4CC6)O[C@]2(CC1)C5 (single isomer, unassigned; ent-12) , would its reported Mycobacterium tuberculosis (H37Rv) MIC be below 3 µg/mL?
Reply: 0 (no)
